Source of measurements: patent US20190315711A1

Assay: Caco-2 cell permeability assay (A-B and B-A)
Assay type: in vitro ADME
Details: human, A-B direction
experimental readout: Papp A→B at 60 min, 10 μM

Recorded results for 3 molecules are shown here.
compound structure | Papp A→B at 60 min, 10 μM
CN(C(=O)[C@@H]1[C@@H](Cc2ccnc(N)c2)C(=O)N1C(=O)N[C@@H](C1CCCCC1)C(F)(F)F)c1cncnc1 | 11 to 30 ×10⁻⁶ cm/s
CC[C@@H](NC(=O)N1C(=O)[C@H](Cc2ccnc(N)c2)[C@H]1C(=O)N(C)c1ccncc1)c1cccc(C#N)c1 | ≤ 10 ×10⁻⁶ cm/s
CC[C@@H](NC(=O)N1C(=O)[C@H](Cc2ccnc(N)c2)[C@H]1C(=O)N(C)c1ccccc1)c1cccnc1 | ≤ 10 ×10⁻⁶ cm/s

Endpoint output: Papp A→B at 60 min, 10 μM of CC[C@@H](NC(=O)N1C(=O)[C@H](Cc2ccnc(N)c2)[C@H]1C(=O)N(CC)c1cccc(Cl)c1)C1CCCCC1 . Value?
≤ 10 ×10⁻⁶ cm/s

Do the same for CC[C@@H](NC(=O)N1C(=O)[C@H](Cc2ccnc(N)c2)[C@H]1C(=O)N(C)c1ccncc1)c1cccnc1 please
≤ 10 ×10⁻⁶ cm/s

Also need CN(C(=O)[C@@H]1[C@@H](Cc2ccnc(N)c2)C(=O)N1C(=O)N[C@@H](C1CCCCC1)C(F)(F)F)c1cc(Cl)cc(Cl)c1 , thanks.
≤ 10 ×10⁻⁶ cm/s

---

Listing: half-life at 2 μM of selected compounds
Test: Metabolic stability in dog hepatocytes
Assay type: in vitro ADME
Settings: pooled cryopreserved hepatocytes; beagle dog hepatocytes, 2 μM compound, 500,000 cells/mL, 37° C.; read-out: Dog Hepatocyte Stability (T½: min)

Examples with their reported half-life at 2 μM follow.
compound structure | half-life at 2 μM
CC[C@@H](NC(=O)N1C(=O)[C@H](Cc2ccnc(N)c2)[C@H]1C(=O)N(C)c1ccncc1)c1cccc(Cl)c1 | 121 to 240 min
CC[C@H](NC(=O)N1C(=O)[C@H](Cc2ccnc(N)c2)[C@H]1C(=O)N(C)c1ccncc1)c1ccccc1C | 121 to 240 min

What value of half-life at 2 μM has been reported for the following compound? CC[C@@H](NC(=O)N1C(=O)[C@H](Cc2ccnc(N)c2)[C@H]1C(=O)N(C)c1ncncn1)C1CCCCC1
< 60 min

---

Target or system human Factor XIa (Homo sapiens): recorded IC50 listed per item.

A selection of reference data follows.
compound structure | target system | IC50
CN(C(=O)[C@@H]1[C@@H](Cc2ccnc(N)c2)C(=O)N1C(=O)N[C@@H](C1CCCCC1)C(F)(F)F)c1cccnc1 | human Factor XIa (Homo sapiens) | 10 to 100 nM
CC[C@@H](NC(=O)N1C(=O)[C@H](Cc2ccnc(NC)c2)[C@H]1C(=O)N(C)c1ccncc1)c1cccc(Cl)c1 | human Factor XIa (Homo sapiens) | < 10 nM
CCC[C@@H](NC(=O)N1C(=O)[C@H](Cc2ccnc(N)c2)[C@H]1C(=O)N(C)c1ccccc1)c1cccnc1 | human Factor XIa (Homo sapiens) | 10 to 100 nM

What measured IC50 goes with CC[C@@H](NC(=O)N1C(=O)[C@H](Cc2ccnc(N)c2)[C@H]1C(=O)N(C)c1cc(C)nc(C)c1)c1cccc(C)c1 ?
10 to 100 nM

And what about the compound CCC[C@H](NC(=O)N1C(=O)[C@H](Cc2ccnc(N)c2)[C@H]1C(=O)N(C)c1ccccc1)c1cccnc1 ?
10 to 100 nM

Can you handle CC[C@@H](NC(=O)N1C(=O)[C@H](Cc2ccnc(N)c2)[C@H]1C(=O)N(C)c1ccncc1)c1cccc(F)c1 next?
< 10 nM
